Test system: 945468-187-T-J3-PDC spheroids with HUVEC/MSC, viability;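 further: spheroids exposed to agents for 7 days before viability read; 100% = DMSO vehicle control viability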
Test: Anticancer human tumor 945468-187-T-J3-PDC patient-derived rectal carcinoma cell line growth inhibition [PI3K]
Conditions: second compound 0.316 µM; first compound 0.0949 µM; stronger effect = lower value
From the text: Combinatorial screen of targeted agents with the PI3K inhibitors inavolisib, alpelisib, duvelisib, and copanlisib in multi-cell type tumor spheroids A high-throughput screen of multi-cell type tumor spheroids was designed to identify active combinations of targeted small molecules and PI3K pathway inhibitors. […] Compounds. […] If the clinical Cmax for an agent had not been determined, the highest concentration tested was 10 microM. […]
Reported viability, T/C values for a set of compounds
// units = %; emit number, no label

Cn1cnc2c(F)c(Nc3ccc(Br)cc3Cl)c(C(=O)NOCCO)cc21 + CC(Nc1ccc2c(c1)OCCn1cc(N3C(=O)OCC3C(F)F)nc1-2)C(N)=O : 52.7
Cn1cnc2c(F)c(Nc3ccc(Br)cc3Cl)c(C(=O)NOCCO)cc21 + COc1c(OCCCN2CCOCC2)ccc2c3n(c(=NC(=O)c4cnc(N)nc4)nc12)CCN3 : 10
Cn1cnc2c(F)c(Nc3ccc(Br)cc3Cl)c(C(=O)NOCCO)cc21 + Cc1nc(NC(=O)N2CCCC2C(N)=O)sc1-c1ccnc(C(C)(C)C(F)(F)F)c1 : 116

Prompt: If you can, please state the reported viability, T/C value of Cn1cnc2c(F)c(Nc3ccc(Br)cc3Cl)c(C(=O)NOCCO)cc21 + CC(Nc1ncnc2nc[nH]c12)c1cc2cccc(Cl)c2c(=O)n1-c1ccccc1 .
Completion: 108
